Counter-ions that a name gives are not always drawn.
experimental-endpoint: melting point

> print(dat)
                                   compound    test.result
1  CN1CCC(Oc2ccc3cccnc3c2)c2ccc(-c3cccnn3)cc2C1 (stereo not drawn) (as salt: tartrate)  120 to 122 °C
2  CN1CCC(Oc2ccc(F)cc2F)c2ccc(-c3cccnn3)cc2C1 (stereo not drawn) (as salt: tartrate)   98 to 100 °C
3  CN1CCC(Oc2ccc(OC(F)(F)F)cc2)c2ccc(-c3cccnn3)cc2C1 (stereo not drawn) (as salt: tartrate)  104 to 106 °C
4  CN1CCC(Oc2ccc3ccccc3c2)c2ccc(-c3cccnn3)cc2C1 (stereo not drawn) (as salt: tartrate) [Example 1]  122 to 124 °C
5  CN1CCC(Oc2ccc(C#N)cc2)c2ccc(-c3cccnn3)cc2C1 (stereo not drawn) (as salt: tartrate) [Example 6]    94 to 96 °C

Answer with the recorded melting point for the compound listed here: CN1CCC(Oc2ccccc2F)c2ccc(-c3cccnn3)cc2C1 (stereo not drawn) (as salt: tartrate)
96 to 98 °C

Look up melting point of CN1CCC(Oc2cccnc2)c2ccc(-c3cccnn3)cc2C1 (stereo not drawn) (as salt: tartrate) and report it.
120 to 123 °C

Identify melting point associated with the compound Cc1ccc(OC2CCN(C)Cc3cc(-c4cccnn4)ccc32)cc1 (stereo not drawn) (as salt: tartrate)
104 to 106 °C

// fetch melting point given entry CN1CCC(Oc2ccc3ccccc3c2)c2ccc(-c3cccnn3)cc2C1 (stereo not drawn) (as salt: tartrate) [Example 18]
120 to 122 °C

Given the compound CN1CCC(Oc2ccccc2)c2ccc(-c3cccnn3)cc2C1 (stereo not drawn) (as salt: tartrate) , write its reported melting point.
98 to 100 °C

----------
Listed compounds paired with reported melting point
Structures can show the parent of a compound that is named as a salt.

Recorded results for 3 compounds are shown here.
> print(dat)
                                   compound  experimental.endpoint    test.result
1  CN1CCC(Oc2ccccc2Cl)c2ccc(-c3cccnn3)cc2C1 (stereo not shown) (as salt: tartrate) [Example 34]          melting point  100 to 102 °C
2  CN1CCC(Oc2ccccc2)c2ccc(-c3ncccn3)cc2C1 (stereo not shown) (as salt: tartrate)          melting point  108 to 110 °C
3  CN1CCC(Oc2cc(F)cc(F)c2)c2ccc(-c3cccnn3)cc2C1 (stereo not shown) (as salt: tartrate) [Example 14]          melting point  120 to 122 °C

// Input: CN1CCC(Oc2cccc(F)c2F)c2ccc(-c3cccnn3)cc2C1 (stereo not shown) (as salt: tartrate) . Output its melting point only.
112 to 114 °C

Provide measured melting point value, entry: CN1CCC(Oc2cccc3ccccc23)c2ccc(-c3cccnn3)cc2C1 (stereo not shown) (as salt: tartrate)
100 to 102 °C

Fill in melting point for record CN1CCC(Oc2ccccc2Cl)c2ccc(-c3cccnn3)cc2C1 (stereo not shown) (as salt: tartrate) [Example 35]
104 to 106 °C

Report melting point, nothing else, for this compound: CN1CCC(Oc2cc(F)cc(F)c2)c2ccc(-c3cccnn3)cc2C1 (stereo not shown) (as salt: tartrate) [Example 5]
94 to 96 °C

----------
Where a name gives a salt, the structure may show the parent alone.
Documented melting point across a set of compounds

> print(dat)
                                   compound    test.result
1  CN1CCC(Oc2ccc(Cl)cc2)c2ccc(-c3cccnn3)cc2C1 (stereo not shown) (as salt: tartrate) [Example 2]  106 to 108 °C
2  CN1CCC(Oc2cccc(F)c2)c2ccc(-c3cccnn3)cc2C1 (stereo not shown) (as salt: tartrate) [Example 13]    96 to 98 °C
3  CN1CCC(Oc2c(F)cccc2F)c2ccc(-c3cccnn3)cc2C1 (stereo not shown) (as salt: tartrate) [Example 55]   98 to 100 °C

Hello, please tell me recorded melting point for this one: Cc1ccc(-c2ccc3c(c2)CNCCC3Oc2ccccc2)nn1 (stereo not shown) (as salt: tartrate) [Example 32]
115 to 118 °C

Each recorded value in this set is attributed to patent US8987252B2.
